The measured values listed here are drawn from ChEMBL document CHEMBL1201862.

Tested on: SF-539
TEST METHOD NOTES: NCI tumour cell line growth inhibition, 48 h
Active and inactive are the calls of the source. Cut-off read from the data, not from the text of the source: active = GI50 up to about 1.1 µM and inactive = higher. Square brackets hold non-standard residues; d marks the D form. Peptide text beside a SMILES is read from it. * marks the point of attachment. X26 = COC1=CC(=O)N(C(=O)[C@@H](O*)C(C)C)[C@H]1Cc1ccccc1; Bn2Val = CC(C)[C@@H](C(=O)*)N(Cc1ccccc1)Cc1ccccc1; NMeV = CN[C@H](C(=O)O)C(C)C; dNMeA = CN[C@H](C)C(=O)O
Pick one and only one: 1 (active), -1 (inactive)

Solved entries:
CCN(CC)/[N+]([O-])=N/OCOC(C)=O    -1
O=C(O)CCSCc1ccccc1    -1
O=C(/C=C/c1cc2ccccc2o1)N1CCN(c2ccccn2)CC1    -1

Q. Please indicate how the test categorized `COc1cc2c(c(OC)c1OC)-c1ccc(=O)c(O)cc1[C@@H](NC(C)=O)CC2` .
A. -1

Q. Please indicate how the test categorized `CC(=O)OCc1ccc(O)c(C=O)c1` .
A. -1

Q. Please indicate how the test categorized COc1ccc2c(c1)CC[C@@H]1C2CC[C@]2(C)C(=O)N(CCN(C)C)C(=O)CC12 (stereo partly specified) .
A. -1

Q. Please indicate how the test categorized `O=c1[nH]c2ccccc2nc1CBr` .
A. -1

Q. Please indicate how the test categorized COC1=CC(=O)N(C(=O)[C@@H](OC(=O)[C@@H](C)N(C)C(=O)[C@@H]2CCCN2C(=O)[C@H](C(C)C)N(C)C(=O)[C@@H](NC(=O)[C@H](C(C)C)N(Cc2ccccc2)Cc2ccccc2)C(C)C)C(C)C)[C@H]1Cc1ccccc1 (Bn2Val-V[NMeV]P[dNMeA]-X26) .
A. -1

Q. Please indicate how the test categorized `O=[N+]([O-])c1ccc(-c2noc(-c3ccccc3)c2C2=NCCN2)cc1` .
A. -1

Q. Please indicate how the test categorized `Cc1c(C)c2c(c(N)c1C#N)C(=O)N(O)C2=O` .
A. -1

Q. Please indicate how the test categorized `CCNC(=S)NNC(=O)C12CC3CC(CC(C3)C1)C2` .
A. -1

Q. Please indicate how the test categorized `COc1ccc(Br)c(/C=N\c2cccc3cc(OC)c(OC)cc23)c1` .
A. -1
